- protocol_details: Plasma levels of Compound 1 over 24 hours after 14 days of suspension administration in healthy volunteers
- Assay type: in vivo
- experimental_context: human, oral, 25 mg BID suspension, 8 h post-dose

# test_smiles, measurement_units, concentration at 8 h
records = [
    ("NC(=O)N1CCC[C@@H](N(C(=O)NCc2ccc(OC(F)(F)F)cc2F)C2CC2)C1", "ng/mL", 336),
]

----------
- protocol_details: Plasma levels of Compound 1 over 72 h, suspension versus tablet, fasted or fed, in healthy volunteers
- Type: in vivo
- experimental_context: human, oral, 100 mg, 100 mg tablet, fed, 3 h post-dose, read-out: Plasma level, Mean
readout_name: concentration at 3 h

# test_smiles, result
rows = [
    ("NC(=O)N1CCC[C@@H](N(C(=O)NCc2ccc(OC(F)(F)F)cc2F)C2CC2)C1", "2950 ng/mL"),
]
